system: velvetleaf; assay: Test A preemergence; type: in vivo, Abutilon theophrasti; settings: 500 g ai/ha, 0 to 100 scale, 0 no effect, 100 complete control, approx. 10 days
Metric Name: Velvetleaf plant response rating
Answers are plain numbers.

Give reported Velvetleaf plant response rating for Brc1cnc(Oc2ccccc2-n2cc(Br)cn2)nc1 [Compound 8] (velvetleaf)
100

Hey, quick one: what's Velvetleaf plant response rating for each of these?
1. O=Cc1cccc(Oc2ncc(Cl)cn2)c1-n1cc(Br)cn1 [Compound 61]
2. Clc1cnc(Oc2ccccc2-n2cc(Cl)cn2)nc1 [Compound 3]
3. Brc1cnc(Oc2ccccc2-n2cc(Br)c(Br)n2)nc1 [Compound 24]
4. FC(F)(F)c1ccn(-c2ccccc2Oc2ncc(Br)cn2)n1 [Compound 1]
5. N#Cc1cccc(Oc2ncc(Cl)cn2)c1-n1cnc(Br)c1 [Compound 74]

[0, 90, 0, 20, 100]
